Tested on: hiPSC-CMs (iCell-Cardiomyocytes^2)
TEST_CONTEXT: 1 µM, 72h
MEASURED_ATTRIBUTE: Flat T-wave-like, number of observations/total well numbers

Worked examples, 4 compounds total:
# COMPOUND, RESULT
rows = [
    ("Cc1cn(-c2cc(NC(=O)c3ccc(C)c(Nc4nccc(-c5cccnc5)n4)c3)cc(C(F)(F)F)c2)cn1", "1/5"),
    ("CC(C)(Sc1cc(C(C)(C)C)c(O)c(C(C)(C)C)c1)Sc1cc(C(C)(C)C)c(O)c(C(C)(C)C)c1", "0/4"),
    ("N=C(N)c1ccc(OCCCCCOc2ccc(C(=N)N)cc2)cc1", "0/6"),
    ("C#Cc1cccc(Nc2ncnc3cc(OCCOC)c(OCCOC)cc23)c1", "0/5"),
]

Query COc1cccc2c1C(=O)c1c(O)c3c(c(O)c1C2=O)C[C@@](O)(C(=O)CO)C[C@@H]3O[C@H]1C[C@H](N)[C@H](O)[C@H](C)O1 yields Flat T-wave-like, number of observations/total well numbers of 0/5

Just so you know, measured Flat T-wave-like, number of observations/total well numbers for COc1nc(N)nc2c1ncn2[C@@H]1O[C@H](COP(=O)(N[C@@H](C)C(=O)OCC(C)(C)C)Oc2cccc3ccccc23)[C@@H](O)[C@@]1(C)O (stereo partly shown) came out at 4/5

The compound listed as COc1cc2c(Nc3ccc(Br)cc3F)ncnc2cc1OCC1CCN(C)CC1 shows Flat T-wave-like, number of observations/total well numbers equal to 3/5
